For each record, write down the corresponding growth.
Tested on: LOX IMVI melanoma
Assay: NCI-60 one-dose screen, 48 h (100 = growth as untreated, 0 = no growth, -100 = all killed)
Details: 10 µM unless noted
About 83,000 compounds went through this panel and 20% of them were active in at least one assay; those are over-represented in the sample as a whole.
One number for each entry, in %.

Study these solved cases before continuing.
molecule	growth [%]
O=C(c1ccccc1)C(Cl)C(Cl)c1ccccc1 (centres undefined)	-64.9
Cc1ccnc2nc(C(=O)OCC(=O)Nc3ccc(-c4ccccc4)cc3)nn12	99
Cc1cc(C(=O)CSc2nc3ccccc3c(=O)[nH]2)c(C)n1C	94.7

Here is another molecule to look at.
Task: Fill in: growth of `CC(C)(C)OC(=O)N1C/C(=C\c2cccs2)C(=O)/C(=C/c2cccs2)C1` is ___
Output: 90.9
